experimental-system: T1, SPEN RRM 1-4 (Homo sapiens, UniProt Q96T58)
T1 sequence: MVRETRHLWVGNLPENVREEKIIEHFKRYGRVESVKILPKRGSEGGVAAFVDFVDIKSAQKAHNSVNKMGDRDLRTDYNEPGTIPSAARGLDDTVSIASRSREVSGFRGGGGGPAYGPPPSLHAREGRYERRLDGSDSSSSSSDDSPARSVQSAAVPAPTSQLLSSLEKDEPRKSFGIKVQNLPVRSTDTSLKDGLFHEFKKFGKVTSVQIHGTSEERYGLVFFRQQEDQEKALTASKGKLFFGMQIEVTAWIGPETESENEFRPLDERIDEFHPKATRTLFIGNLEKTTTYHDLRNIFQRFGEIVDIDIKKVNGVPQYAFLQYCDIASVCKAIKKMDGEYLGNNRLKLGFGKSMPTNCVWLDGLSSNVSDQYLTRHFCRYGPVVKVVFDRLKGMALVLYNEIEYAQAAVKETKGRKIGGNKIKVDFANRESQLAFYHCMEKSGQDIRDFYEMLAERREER
measurement-notes: EMSA; Hill 1; EMSA: 20 mM Tris-HCl pH 7.5, 150 mM KCl, 5 mM MgCl2, 10% glycerol, room temperature 30 min, 2 nM each labeled RNA (multiplexed), 4.5% TBE native gel
protocol-conditions: protein: recombinant; tags: 6xHis-MBP-TEV at N-terminus, removed by TEV cleavage; label: internal fluorophore-UTP
Below, each of the binders is paired with its reported Kd value.
Please give a number only; it is taken to be in nM.

Sample answers from the record:
binder	display-unit	Kd
XIST A1-4 (structured_RNA) RNA: GCUGCGGAUACCUGGUUUUAUUAUUUUUUCUUUGCCCAACGGGGCCGUGGAUACCUGCCUUUUAAUUCUUUUUUAUUCGCCCAUCGGGGCCGCGGAUACCUGCUUUUUAUUUUUUUUUCCUUAGCCCAUCGGGGUAUCGGAUACCUGCUGAUUCCCUUCCCCUCUGAACCCCCAACACUCUGGCCCAUCG	nM	71
tRNA-Cys (structured_RNA) RNA: GGGGGUAUAGCUCAGGGGUAGAGCAUUUGACUGCAAAUCAAGAGGUCCCUGAUUCAAAUCCAGGUGCCCCCUCCAAGCUUG	nM	245
XIST A6-8 (trimer) (structured_RNA) RNA: GGCCCAUCGGGGCUUCGGAUACCUGCUUUUUUUUUUUUUAUUUUUCCUUGCCCAUCGGGGCCUCGGAUACCUGCUUUAAUUUUUGUUUUUCUGGCCCAUCGGGGCCGCGGAUACCUGCUU	nM	288

Return reported Kd; argument: XIST A7-8 (dimer) (structured_RNA) RNA: GUUGCCCAUCGGGGCCUCGGAUACCUGCUUUAAUUUUUGUUUUUCUGGCCCAUCGGGGCCGCGGAUACCUGCUU
248
